Where these numbers come from: ChEMBL document CHEMBL1150522

System: Candida albicans
Assay name: Minimum inhibitory concentration against Candida albicans (ATCC 10231) in the presence of serum
Format: functional
Assay metric: MIC (µg/mL)

* CCCCC/C=C/C=C/[C@@H](O)C/C=C/C=C/C(=O)O[C@@H]1[C@@H](O)[C@H](c2c(O)cc(O)cc2CO)O[C@H](CO)[C@H]1O[C@@H]1O[C@H](COC(=O)c2ccc(-c3ccc(OCCCCCCCC)cc3)cc2)[C@H](O)[C@H](O)[C@H]1O[C@@H]1O[C@H](CO)[C@H](O)[C@H](O)[C@H]1O | 25

[1] CCCCC/C=C/C=C/[C@@H](O)C/C=C/C=C/C(=O)O[C@@H]1[C@@H](O)[C@H](c2c(O)cc(O)cc2CO)O[C@H](CO)[C@H]1O[C@@H]1O[C@H](COC(=O)c2ccc3ccccc3c2)[C@H](O)[C@H](O)[C@H]1O[C@@H]1O[C@H](CO)[C@H](O)[C@H](O)[C@H]1O
[2] CCC(O)/C=C/C=C\C=C\C(=O)OC[C@H]1O[C@@H](O[C@H]2[C@H](OC(=O)/C=C/C=C/C[C@H](O)/C(C)=C/C=C/CCC(C)CC)[C@@H](O)[C@@]3(OCc4cc(O)cc(O)c43)O[C@@H]2CO)[C@H](O)[C@@H](O)[C@H]1O (stereo not given in full)
Endpoint returns whichever of 1 and 2 has the numerically higher MIC. Indicate which entry you chose by stating its label.
1
